- System: 994946-033-R-J1-PDC complex spheroid viability
- assay: Anticancer human tumor 994946-033-R-J1-PDC patient-derived melanoma cell line growth inhibition [POLQ]
- condition-notes: second compound 0.316 µM; first compound 0.1 µM; stronger effect = lower value
measure: viability, T/C (%)
// return numeric value only (unit: %, not printed)

Worked cases, answers included:
Recorded result, CC[C@@]1(O)C(=O)OCc2c1cc1n(c2=O)Cc2cc3c(CN(C)C)c(O)ccc3nc2-1 + COC1C(OC(N)=O)C(O)C(Oc2ccc3c(O)c(NC(=O)c4ccc(O)c(CC=C(C)C)c4)c(=O)oc3c2C)OC1(C)C , viability, T/C: 11.3

Recorded result, CCc1cc2c(N3CCc4c(cc(Cn5ccnc5)cc4-c4cn(C)nc4C(F)(F)F)C3=O)cc(C)nc2c(OC)n1 + Nc1ccc(C#CCN(C(=O)Cc2ncc(C(F)(F)F)cc2C(F)(F)F)c2ccc(F)cc2)nn1 , viability, T/C: 79.8

Here is another molecule to look at.
Recorded result, Cn1ncnc1[C@H]1c2n[nH]c(=O)c3cc(F)cc(c23)N[C@@H]1c1ccc(F)cc1 + COC1C(OC(N)=O)C(O)C(Oc2ccc3c(O)c(NC(=O)c4ccc(O)c(CC=C(C)C)c4)c(=O)oc3c2C)OC1(C)C , viability, T/C: 77.7

====

List of pIC50 values.
- Test system: 994946-033-R-J1-PDC complex spheroid viability
- assay: Anticancer human tumor 994946-033-R-J1-PDC cell line growth inhibition [POLQ];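 note: spheroids exposed to drugs for 7 days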
- condition-notes: curve of first compound; second compound 0.1 µM
Just so you know, pIC50 here is -log10 of the concentration in molar units; reply with that number alone.

Recorded result, CC1COCCN1c1cc(C2(S(C)(=N)=O)CC2)nc(-c2ccnc3[nH]ccc23)n1 (stereo not given) + COC1C(OC(N)=O)C(O)C(Oc2ccc3c(O)c(NC(=O)c4ccc(O)c(CC=C(C)C)c4)c(=O)oc3c2C)OC1(C)C , pIC50: 5.86

====

- Test system: 994946-033-R-J1-PDC complex spheroid viability
- assay: Anticancer human tumor 994946-033-R-J1-PDC cell line growth inhibition [POLQ];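 note: spheroids exposed to drugs for 7 days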;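 for viability, T/C: 100% = DMSO vehicle treated spheroids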
- condition-notes: second compound 3.16 µM; first compound 0.0316 µM; stronger effect = lower value
measure: viability, T/C (%)
// return numeric value only (unit: %, not printed)

Worked cases, answers included:
Recorded result, COc1cc(C2c3cc4c(cc3C(OC3OC5COC(C)OC5C(O)C3O)C3COC(=O)C23)OCO4)cc(OC)c1O (stereo unspecified) + Cc1cccc(N(C)C(=O)C2C(O)CCN2c2nc(C)cc(C(F)(F)F)c2C#N)c1 , viability, T/C: 72.5

Recorded result, CC1COCCN1c1cc(-c2ccnn2C)c2ccnc(-c3ccn[nH]3)c2n1 (stereo unspecified) + Nc1ccc(C#CCN(C(=O)Cc2ncc(C(F)(F)F)cc2C(F)(F)F)c2ccc(F)cc2)nn1 , viability, T/C: 60.7

Further cases:
Recorded result, Nc1ccn(C2OC(CO)C(O)C2(F)F)c(=O)n1 (stereo unspecified) + Nc1ccc(C#CCN(C(=O)Cc2ncc(C(F)(F)F)cc2C(F)(F)F)c2ccc(F)cc2)nn1 , viability, T/C: 53.2

Recorded result, Cn1ncnc1[C@H]1c2n[nH]c(=O)c3cc(F)cc(c23)N[C@@H]1c1ccc(F)cc1 + Nc1ccc(C#CCN(C(=O)Cc2ncc(C(F)(F)F)cc2C(F)(F)F)c2ccc(F)cc2)nn1 , viability, T/C: 68.6

Recorded result, C#Cc1c(F)ccc2cc(O)cc(-c3ncc4c(N5CC6CCC(C5)N6)nc(OCC56CCCN5CC(F)C6)nc4c3F)c12 (stereo unspecified) + Cc1cccc(N(C)C(=O)C2C(O)CCN2c2nc(C)cc(C(F)(F)F)c2C#N)c1 , viability, T/C: 106

Recorded result, COc1ccc([C@@H](O)c2cc(-c3ncnc4cc(N5CCOCC5)ccc34)c(F)cc2Cl)nn1 + Cc1cccc(N(C)C(=O)C2C(O)CCN2c2nc(C)cc(C(F)(F)F)c2C#N)c1 , viability, T/C: 115
